Catalogue of EC50 readings, one per entry.
assay-system: Peroxisome proliferator-activated receptor gamma/Nuclear receptor coactivator 1 (Homo sapiens, UniProt P37231);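 note: agonist potency as compounds enhance coactivator SRC-1 recruitment to PPARgamma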
Sequence (P37231 whole entry): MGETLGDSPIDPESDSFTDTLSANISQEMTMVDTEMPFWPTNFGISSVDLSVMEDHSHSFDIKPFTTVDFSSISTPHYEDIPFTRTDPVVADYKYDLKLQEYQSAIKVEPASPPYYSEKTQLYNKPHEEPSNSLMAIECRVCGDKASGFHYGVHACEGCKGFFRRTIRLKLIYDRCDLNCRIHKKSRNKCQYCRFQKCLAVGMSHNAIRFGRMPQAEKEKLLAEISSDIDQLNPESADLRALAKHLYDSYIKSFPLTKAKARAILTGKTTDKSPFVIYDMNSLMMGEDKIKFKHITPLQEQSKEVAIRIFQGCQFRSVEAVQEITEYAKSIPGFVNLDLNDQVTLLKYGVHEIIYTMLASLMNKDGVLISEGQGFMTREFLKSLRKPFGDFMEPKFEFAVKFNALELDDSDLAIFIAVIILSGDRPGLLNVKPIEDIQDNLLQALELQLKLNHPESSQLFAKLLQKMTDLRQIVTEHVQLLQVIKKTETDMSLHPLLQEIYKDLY
Sequence (Q15788 whole entry, further chain): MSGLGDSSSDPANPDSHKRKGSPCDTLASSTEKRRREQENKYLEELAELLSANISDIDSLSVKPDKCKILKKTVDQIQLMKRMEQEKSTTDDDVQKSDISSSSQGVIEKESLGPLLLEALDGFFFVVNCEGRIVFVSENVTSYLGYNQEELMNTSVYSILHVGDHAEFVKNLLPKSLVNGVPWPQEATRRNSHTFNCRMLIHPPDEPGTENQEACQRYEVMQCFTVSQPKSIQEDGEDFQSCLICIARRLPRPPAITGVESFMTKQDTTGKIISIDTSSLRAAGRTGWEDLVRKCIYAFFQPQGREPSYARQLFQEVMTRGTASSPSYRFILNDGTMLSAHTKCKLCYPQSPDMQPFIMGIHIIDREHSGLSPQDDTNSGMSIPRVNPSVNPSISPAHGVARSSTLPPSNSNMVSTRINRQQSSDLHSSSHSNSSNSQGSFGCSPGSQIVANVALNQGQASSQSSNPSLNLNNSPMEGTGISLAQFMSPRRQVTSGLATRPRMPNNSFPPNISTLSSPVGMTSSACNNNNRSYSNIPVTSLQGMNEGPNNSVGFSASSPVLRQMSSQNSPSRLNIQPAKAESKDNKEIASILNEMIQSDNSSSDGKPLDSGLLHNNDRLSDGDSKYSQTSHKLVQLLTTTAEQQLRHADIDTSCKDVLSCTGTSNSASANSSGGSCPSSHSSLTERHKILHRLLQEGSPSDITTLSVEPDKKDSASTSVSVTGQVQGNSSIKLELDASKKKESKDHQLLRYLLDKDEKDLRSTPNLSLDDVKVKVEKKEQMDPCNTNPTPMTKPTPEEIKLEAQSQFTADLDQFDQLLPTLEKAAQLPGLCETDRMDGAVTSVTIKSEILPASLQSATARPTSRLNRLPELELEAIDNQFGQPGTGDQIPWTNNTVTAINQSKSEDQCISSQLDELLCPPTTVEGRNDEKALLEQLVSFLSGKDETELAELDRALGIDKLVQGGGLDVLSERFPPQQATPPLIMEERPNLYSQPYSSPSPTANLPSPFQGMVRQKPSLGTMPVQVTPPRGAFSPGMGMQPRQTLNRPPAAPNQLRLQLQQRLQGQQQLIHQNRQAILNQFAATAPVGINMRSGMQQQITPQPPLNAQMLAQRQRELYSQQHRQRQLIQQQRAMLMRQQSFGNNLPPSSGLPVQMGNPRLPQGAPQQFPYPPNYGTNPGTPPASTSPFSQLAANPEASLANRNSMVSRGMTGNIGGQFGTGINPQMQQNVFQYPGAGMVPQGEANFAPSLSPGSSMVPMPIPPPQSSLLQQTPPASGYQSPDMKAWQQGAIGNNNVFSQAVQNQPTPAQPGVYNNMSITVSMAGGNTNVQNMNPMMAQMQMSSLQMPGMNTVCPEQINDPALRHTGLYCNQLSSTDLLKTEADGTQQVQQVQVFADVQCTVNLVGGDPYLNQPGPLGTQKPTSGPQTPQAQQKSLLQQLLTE
Format: functional

cpd-smiles: O=C(Nc1ccc2oc(-c3ccc4ccccc4c3)nc2c1)c1ccc2c(c1)OCCO2
EC50: 27.1 µM (not active)

cpd-smiles: O=C(Nc1ccc(N2CCCCC2)cc1)c1cncc(Br)c1
EC50: > 79.4 µM (not active)

cpd-smiles: C=CCN1C=CC(=C/C=C(/C#N)C(=O)OCC)C=C1
EC50: > 79.4 µM (not active)

cpd-smiles: CC(C)CCNC(=O)NC(=O)COC(=O)/C=C/c1cnc2ccccc2n1
EC50: 49.5 µM (not active)
